test system: RPMI-8226 leukemia; test: NCI-60 one-dose screen, 48 h; details: 10 µM unless noted
The panel holds about 83,000 compounds, 20% with a hit somewhere; the sample as a whole holds those more often. The source made the active and inactive calls. How the source made its calls: active means growth percent below 10; inactive means the rest.
Write down one outcome, taken from active, inactive

As a guide, the following entries are already answered.
1. COCCc1ccc(OCC(O)CNC(C)C)cc1 (centres undefined) : inactive
2. O=C(c1ccccc1)c1c(/C=C/c2ccccc2)nc2ccccc2c1/C=C/c1ccc(Br)cc1 : inactive
3. COc1cccc(Nc2nccc(Nc3ccc4[nH]ncc4c3)n2)c1 : active
4. N#Cc1c(-c2cccc(Cl)c2)cc(-c2cccc(F)c2)[nH]c1=O : inactive
5. O=C1C=C[C@]2(C[C@@H](c3cccc(C(F)(F)F)c3)O[C@@H](c3cccc(C(F)(F)F)c3)O2)O1 : active

Recorded call for CN1C(=O)N(C)C2C1NN=c1s/c(=C\c3ccccc3)c(=O)n12 (centres undefined) ?
inactive

Next molecule: C[C@H](NC(=O)[C@@H]1CSSC[C@@H](NC(=O)c2nc3ccccc3cc2O)C(=O)NCC(=O)N1C)c1ccccc1
inactive

Next molecule: O=C1CCc2c(sc3[nH]c(=S)n(-c4ccc(OC(F)(F)F)cc4)c(=O)c23)C1
active

Next molecule: O=C(c1ccccc1)c1c(/C=C/c2ccc(Cl)cc2)nc2ccccc2c1/C=C/c1cccs1
inactive

---

tested on: NCI-H23 lung; experiment: NCI-60 one-dose screen, 48 h; settings: 10 µM unless noted
About 83,000 compounds went through this panel and 20% of them were active in at least one assay; those are over-represented in the sample as a whole. Calls of active or inactive are those of the source. How the source made its calls: active means growth percent below 10; inactive means the rest.
Write down one outcome, taken from T for active, F for inactive

As a guide, the following entries are already answered.
1) O=C(CC(SCc1ccccc1)c1ccccc1)c1ccccc1 (centres undefined) : F
2) O=C(NCCCNc1cc(-c2cn(-c3ccccc3)nc2-c2cccc(O)c2)ccn1)c1ccccc1 : F
3) COc1ccc(/C=C/c2c(C(=O)/C=C/c3cccs3)c(C)nc3ccccc23)cc1 : F

Recorded call for Cc1ccc(-n2nc3c(c(C#N)c2=O)CC(c2ccccc2Cl)C([N+](=O)[O-])=C3O)cc1 (centres undefined) ?
F

Next compound: CC(C)=C[C@@H]1c2c(c3ccccc3n(C)c2=O)O[C@H]2c3c(c4ccccc4n(C)c3=O)OC(C)(C)[C@@H]12
F

Next compound: CC1=CN2C(=O)C3C4=C(CCCC4)SC3N=C2CN1c1c(C)cccc1C (centres undefined)
F

Next compound: COc1ccc(Cl)cc1NC(=O)C(Br)C(Br)C(=O)O (centres undefined)
F

Next compound: CCCCCCCCCCCCCCCCCCOc1ccc(CC(=O)OCC[N+]2(C)CCCC2)cc1
F

---

test system: UACC-257 melanoma; assay: NCI-60 one-dose screen, 48 h (100 = growth as untreated, 0 = no growth, -100 = all killed); settings: 10 µM unless noted
About 83,000 compounds went through this panel and 20% of them were active in at least one assay; those are over-represented in the sample as a whole. Calls of active or inactive are those of the source. Rule for the calls: active = growth percent below 10; inactive = the rest.
# reported growth; entries follow

1. CC(=O)[C@@H]1CC[C@]2(COS(=O)(=O)c3ccc(C)cc3)CC[C@]3(C)[C@H](CC[C@@H]4[C@@]5(C)CCCNC(C)(C)[C@@H]5CC[C@]43C)[C@@H]12 : 49.9% (inactive)

What does the data say about its growth? Entry: CCOC(=O)C/C(C)=N\NC(=O)c1ccncc1
107% (inactive)

Next compound: COc1ccc(C2C(c3nn[nH]n3)=C(N)Oc3c2ccc2ccccc32)cc1 (centres undefined)
89.8% (inactive)

Next compound: O=C(NC(Cc1nnc2n(Cc3ccccc3)c(=O)c3c4c(sc3n12)CCCC4)c1ccc(Cl)cc1)c1ccccc1 (centres undefined)
105% (inactive)

Next compound: CCCCCCCCCOc1c(OC)cc(C2CC(=O)Nc3c2c(C)nn3-c2nc3ccccc3[nH]2)cc1OC (centres undefined)
15.5% (inactive)

Next compound: Oc1c(CN2CCCC2)cc(COCc2ccc(Br)cc2)c2cccnc12
-29.5% (active)
